biological target: Fyn (UniProt P06241); test: phosphorylation enrichment, bacterial display (enrichment ratio); higher = better substrate or ligand; peptides without Tyr show the background;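 also: 11-residue human phosphosite peptides and single-mutation variants displayed on the E. coli surface, counted by deep sequencing, each peptide's frequency after selection divided by its frequency in the unselected input library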;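 also: frequency after pTyr selection over input frequency; kinase dosed for 20-30% of maximal phosphorylation in three min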
Sequence (P06241 whole entry, looked up): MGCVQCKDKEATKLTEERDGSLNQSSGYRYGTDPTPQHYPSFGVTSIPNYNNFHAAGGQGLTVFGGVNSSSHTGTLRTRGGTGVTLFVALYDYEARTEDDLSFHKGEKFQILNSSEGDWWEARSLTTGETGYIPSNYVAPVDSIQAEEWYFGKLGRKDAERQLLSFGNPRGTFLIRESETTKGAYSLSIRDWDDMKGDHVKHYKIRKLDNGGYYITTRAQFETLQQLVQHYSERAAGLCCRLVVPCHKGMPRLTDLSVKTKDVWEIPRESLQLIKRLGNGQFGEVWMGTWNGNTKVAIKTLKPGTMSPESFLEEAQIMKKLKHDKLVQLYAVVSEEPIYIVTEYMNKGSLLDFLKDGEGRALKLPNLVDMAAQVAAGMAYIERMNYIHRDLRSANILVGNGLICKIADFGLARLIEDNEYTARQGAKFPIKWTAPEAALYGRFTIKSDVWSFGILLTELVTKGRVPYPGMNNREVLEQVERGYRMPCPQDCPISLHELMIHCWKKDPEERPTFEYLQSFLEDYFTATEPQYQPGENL
As shown below, each of these sequences has a reported phosphorylation enrichment value.
Give only the figure.

Example entries begin here.
FSAPNCCFRCG [PPP2CA_Y265_Y265C_YF] :: 0.458
HEKKAYSFCGT [RPS6KA3_Y226] :: 1.09
VDGFVYKLHPS [GCK_Y413_S411F] :: 0.53

Prompt line: Annotate the sequence ADGLEYPRTGL [MMUT_Y287_S288P] with its measured phosphorylation enrichment.
Response line: 0.508

Prompt line: Annotate the sequence GTATAYLCGVK [ALPL_Y117] with its measured phosphorylation enrichment.
Response line: 0.472

Prompt line: Annotate the sequence LLASRYDSPIN [ABLIM1_Y638] with its measured phosphorylation enrichment.
Response line: 1.18

Prompt line: Annotate the sequence GHLFAYNWISI [BEST1_Y227_D228N_YF] with its measured phosphorylation enrichment.
Response line: 0.488

Prompt line: Annotate the sequence RMSQRYRDVLQ [CYP1A2_Y72_G73R] with its measured phosphorylation enrichment.
Response line: 0.593

Prompt line: Annotate the sequence QFFQGYFNNNF [ZNF236_Y644_S643G] with its measured phosphorylation enrichment.
Response line: 0.42

Prompt line: Annotate the sequence FADIAYNFRHG [PAH_Y166_YF] with its measured phosphorylation enrichment.
Response line: 0.558

Prompt line: Annotate the sequence CTTIHYNYMRN [TP53_Y234_C238R] with its measured phosphorylation enrichment.
Response line: 0.52

Prompt line: Annotate the sequence KKFPDYIQSAM [SGMS2_Y59_I62S_YF] with its measured phosphorylation enrichment.
Response line: 0.401

Prompt line: Annotate the sequence SLQSEYVHFGG [CDC14A_Y591_YF] with its measured phosphorylation enrichment.
Response line: 0.783

Prompt line: Annotate the sequence ETGEPCRLSPE [EIF4G1_Y311_Y311C] with its measured phosphorylation enrichment.
Response line: 0.531

Prompt line: Annotate the sequence RMSQRYGDVLQ [CYP1A2_Y72] with its measured phosphorylation enrichment.
Response line: 0.431

Prompt line: Annotate the sequence NGTVSYAIVAG [CDH23_Y1672_T1671S] with its measured phosphorylation enrichment.
Response line: 0.638

Prompt line: Annotate the sequence LYNQDYPIHSV [GATM_Y227] with its measured phosphorylation enrichment.
Response line: 1.31

Prompt line: Annotate the sequence VDASYCGGRGV [ANTXR2_Y381_Y381C] with its measured phosphorylation enrichment.
Response line: 0.676

====

target: Jak2 (UniProt O60674); test: phosphorylation enrichment, bacterial display (enrichment ratio); higher = better substrate or ligand; peptides without Tyr show the background
Sequence (O60674 whole entry, looked up): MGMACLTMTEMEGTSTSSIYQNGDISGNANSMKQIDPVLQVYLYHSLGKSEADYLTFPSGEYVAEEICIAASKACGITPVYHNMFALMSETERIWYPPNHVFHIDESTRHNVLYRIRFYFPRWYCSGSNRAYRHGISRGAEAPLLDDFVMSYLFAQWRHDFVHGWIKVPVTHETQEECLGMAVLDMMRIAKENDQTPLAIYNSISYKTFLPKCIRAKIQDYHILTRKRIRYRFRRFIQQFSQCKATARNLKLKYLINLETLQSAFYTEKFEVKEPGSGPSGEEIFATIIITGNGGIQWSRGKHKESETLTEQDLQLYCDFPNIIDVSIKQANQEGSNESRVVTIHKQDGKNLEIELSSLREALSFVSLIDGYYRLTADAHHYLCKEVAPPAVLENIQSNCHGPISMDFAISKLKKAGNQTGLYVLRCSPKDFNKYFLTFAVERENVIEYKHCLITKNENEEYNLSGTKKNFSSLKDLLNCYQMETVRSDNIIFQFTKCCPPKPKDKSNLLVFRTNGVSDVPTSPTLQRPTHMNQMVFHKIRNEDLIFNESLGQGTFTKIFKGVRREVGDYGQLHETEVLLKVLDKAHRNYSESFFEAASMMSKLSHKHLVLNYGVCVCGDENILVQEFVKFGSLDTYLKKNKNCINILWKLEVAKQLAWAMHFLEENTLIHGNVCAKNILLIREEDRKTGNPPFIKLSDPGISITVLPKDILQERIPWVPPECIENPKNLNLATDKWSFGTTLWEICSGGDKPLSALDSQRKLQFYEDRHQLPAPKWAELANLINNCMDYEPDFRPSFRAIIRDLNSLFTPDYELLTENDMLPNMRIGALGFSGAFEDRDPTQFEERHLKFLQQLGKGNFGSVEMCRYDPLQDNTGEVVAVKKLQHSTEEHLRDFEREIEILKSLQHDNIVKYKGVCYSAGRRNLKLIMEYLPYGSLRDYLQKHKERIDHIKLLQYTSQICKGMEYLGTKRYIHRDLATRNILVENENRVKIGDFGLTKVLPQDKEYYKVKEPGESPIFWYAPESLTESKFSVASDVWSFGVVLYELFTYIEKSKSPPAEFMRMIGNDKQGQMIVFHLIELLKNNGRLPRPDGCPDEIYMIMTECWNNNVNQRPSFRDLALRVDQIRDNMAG
quantity: phosphorylation enrichment
Give only the figure.

Prompt line: Please tell me the measured phosphorylation enrichment for KLQKYYRKNPD [EHHADH_Y683_Q685K] ; system: Jak2 (UniProt O60674).
Response line: 0.486

Prompt line: Please tell me the measured phosphorylation enrichment for DLTQDSEEWKR [ORC6_Y232_Y232S] ; system: Jak2 (UniProt O60674).
Response line: 1.07

Prompt line: Please tell me the measured phosphorylation enrichment for SRDPFYEMLTA [CYTH1_Y382_A386T] ; system: Jak2 (UniProt O60674).
Response line: 0.975

Prompt line: Please tell me the measured phosphorylation enrichment for NTPNTYLRVNV [ADD2_Y440] ; system: Jak2 (UniProt O60674).
Response line: 0.908

Prompt line: Please tell me the measured phosphorylation enrichment for SGPRRYTIAAL [TTR_Y125] ; system: Jak2 (UniProt O60674).
Response line: 0.639

====

molecular target: EPHB2 (UniProt P29323); assay: phosphorylation enrichment, bacterial display (enrichment ratio); higher = better substrate or ligand; peptides without Tyr show the background
Sequence (P29323 whole entry, looked up): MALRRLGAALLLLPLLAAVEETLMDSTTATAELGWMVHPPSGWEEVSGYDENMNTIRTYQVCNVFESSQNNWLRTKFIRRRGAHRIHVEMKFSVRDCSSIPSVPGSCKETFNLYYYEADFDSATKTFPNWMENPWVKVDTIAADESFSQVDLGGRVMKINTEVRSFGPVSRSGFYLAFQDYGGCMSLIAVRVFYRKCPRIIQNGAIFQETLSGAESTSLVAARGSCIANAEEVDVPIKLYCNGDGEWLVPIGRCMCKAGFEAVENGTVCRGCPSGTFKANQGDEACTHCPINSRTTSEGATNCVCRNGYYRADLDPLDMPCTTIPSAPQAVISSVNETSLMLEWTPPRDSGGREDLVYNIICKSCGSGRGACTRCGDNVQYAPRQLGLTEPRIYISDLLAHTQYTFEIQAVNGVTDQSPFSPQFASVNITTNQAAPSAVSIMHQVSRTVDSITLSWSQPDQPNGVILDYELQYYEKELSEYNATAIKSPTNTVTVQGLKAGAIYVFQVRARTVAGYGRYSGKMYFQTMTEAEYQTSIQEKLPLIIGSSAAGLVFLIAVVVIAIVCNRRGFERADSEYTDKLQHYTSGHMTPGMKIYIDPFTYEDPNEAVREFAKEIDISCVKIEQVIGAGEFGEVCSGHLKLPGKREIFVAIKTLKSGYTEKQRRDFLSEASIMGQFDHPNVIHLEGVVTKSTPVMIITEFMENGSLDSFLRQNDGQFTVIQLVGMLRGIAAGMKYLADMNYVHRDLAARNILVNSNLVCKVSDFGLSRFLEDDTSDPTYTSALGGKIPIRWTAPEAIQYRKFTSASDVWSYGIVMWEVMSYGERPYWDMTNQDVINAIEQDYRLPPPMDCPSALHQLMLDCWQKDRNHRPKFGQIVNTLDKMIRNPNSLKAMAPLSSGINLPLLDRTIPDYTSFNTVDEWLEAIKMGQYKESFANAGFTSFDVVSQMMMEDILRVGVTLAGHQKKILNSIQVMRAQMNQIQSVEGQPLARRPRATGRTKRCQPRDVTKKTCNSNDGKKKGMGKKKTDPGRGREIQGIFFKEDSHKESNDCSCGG
Each entry gets rule not met if its phosphorylation enrichment stays under 0.5, and rule met if its phosphorylation enrichment is 0.5 or above.

EEEYEYMNRRR [ERBB3_Y1199_D1194E] :: rule not met
EFISECCGEII [EZH2_Y641_Y641C] :: rule met
KKFPDYIQSAM [SGMS2_Y59_I62S_YF] :: rule not met
MSGDVYSTDFF [NTRK2_Y702_R699G_YF] :: rule met
CTTIHQNYMCN [TP53_Y234_Y234Q] :: rule not met

Prompt line: Would you say LIDGYYRLTAD [JAK2_Y373] shows phosphorylation enrichment at minimum 0.5?
Response line: rule met

Prompt line: Would you say VDASYYGGRGV [ANTXR2_Y381] shows phosphorylation enrichment at minimum 0.5?
Response line: rule not met

Prompt line: Would you say SQQTFCRVSNM [ABCD1_Y181_Y181C_YF] shows phosphorylation enrichment at minimum 0.5?
Response line: rule met

Prompt line: Would you say HFPFQYHRQLF [F12_Y53_YF] shows phosphorylation enrichment at minimum 0.5?
Response line: rule met

Prompt line: Would you say NTDETYCIDNK [TUBB3_Y200_E205K] shows phosphorylation enrichment at minimum 0.5?
Response line: rule met

====

As shown below, each of these sequences has a reported phosphorylation enrichment value.
tested on: AncSZ; assay: phosphorylation enrichment, bacterial display (enrichment ratio); higher = better substrate or ligand; peptides without Tyr show the background
Give only the figure.

Example entries begin here.
HITQVYGFFDE [PPP2CA_Y127_Q122H_YF] :: 2.03
TFHNTYHSHMR [IL1RAPL1_Y615_Q618H] :: 0.529
GLGVTYEQALA [MAP2_Y996] :: 0.712
KTGDFYDLFGG [PTPN11_Y63_N58K_YF] :: 0.956
QEIATCRRLLE [KRT14_Y415_Y415C] :: 0.896

Prompt line: Annotate the sequence IGRWVYPLTPE [EIF2B5_Y319_R315G] with its measured phosphorylation enrichment.
Response line: 1.33

Prompt line: Annotate the sequence GHLFAYNWISI [BEST1_Y227_D228N_YF] with its measured phosphorylation enrichment.
Response line: 0.962

Prompt line: Annotate the sequence FKDVTYLKEEK [UBE3A_Y127_T129K] with its measured phosphorylation enrichment.
Response line: 0.891

Prompt line: Annotate the sequence VMTLDYSKTVV [SETD2_Y770_V768L] with its measured phosphorylation enrichment.
Response line: 0.719

Prompt line: Annotate the sequence TLCLCYKETEE [ATP8B1_Y658_I661T] with its measured phosphorylation enrichment.
Response line: 1.42

Prompt line: Annotate the sequence KKDGPYDVVVL [PARK7_Y67_E64D] with its measured phosphorylation enrichment.
Response line: 0.906

Prompt line: Annotate the sequence ILKPDYQPLAI [HYDIN_Y1072] with its measured phosphorylation enrichment.
Response line: 0.613

Prompt line: Annotate the sequence IGEGTYRQVYK [CDK13_Y716_G717R] with its measured phosphorylation enrichment.
Response line: 0.492

====

target: Fyn (UniProt P06241); experiment: phosphorylation enrichment, bacterial display (enrichment ratio); higher = better substrate or ligand; peptides without Tyr show the background
As shown below, each of these sequences has a reported phosphorylation enrichment value.
Give only the figure.

Example entries begin here.
TRSYDYMEGGD [FGF7_Y58] :: 0.458
PEVCDYGLGGG [GSTO1_Y239_A236V] :: 0.965
KRISCYEARFQ [PFKFB3_Y194_S197R_YF] :: 0.382

Prompt line: Annotate the sequence LKYAIYFEVRE [LAMA2_Y1258_A1261V] with its measured phosphorylation enrichment.
Response line: 1.17

Prompt line: Annotate the sequence KHCEDYVFSYN [DSC1_Y846_C848F] with its measured phosphorylation enrichment.
Response line: 0.576

Prompt line: Annotate the sequence FAELVYTSFWH [ASS1_Y322_G324S] with its measured phosphorylation enrichment.
Response line: 8.65

Prompt line: Annotate the sequence VGGRIYTDDGL [PKLR_Y218_I219T] with its measured phosphorylation enrichment.
Response line: 0.427

Prompt line: Annotate the sequence DRPASYKKKSM [PDGFRA_Y768] with its measured phosphorylation enrichment.
Response line: 0.365

====

As shown below, each of these sequences has a reported phosphorylation enrichment value.
biological target: MERTK (UniProt Q12866); assay: phosphorylation enrichment, bacterial display (enrichment ratio); higher = better substrate or ligand; peptides without Tyr show the background
Sequence (Q12866 whole entry, looked up): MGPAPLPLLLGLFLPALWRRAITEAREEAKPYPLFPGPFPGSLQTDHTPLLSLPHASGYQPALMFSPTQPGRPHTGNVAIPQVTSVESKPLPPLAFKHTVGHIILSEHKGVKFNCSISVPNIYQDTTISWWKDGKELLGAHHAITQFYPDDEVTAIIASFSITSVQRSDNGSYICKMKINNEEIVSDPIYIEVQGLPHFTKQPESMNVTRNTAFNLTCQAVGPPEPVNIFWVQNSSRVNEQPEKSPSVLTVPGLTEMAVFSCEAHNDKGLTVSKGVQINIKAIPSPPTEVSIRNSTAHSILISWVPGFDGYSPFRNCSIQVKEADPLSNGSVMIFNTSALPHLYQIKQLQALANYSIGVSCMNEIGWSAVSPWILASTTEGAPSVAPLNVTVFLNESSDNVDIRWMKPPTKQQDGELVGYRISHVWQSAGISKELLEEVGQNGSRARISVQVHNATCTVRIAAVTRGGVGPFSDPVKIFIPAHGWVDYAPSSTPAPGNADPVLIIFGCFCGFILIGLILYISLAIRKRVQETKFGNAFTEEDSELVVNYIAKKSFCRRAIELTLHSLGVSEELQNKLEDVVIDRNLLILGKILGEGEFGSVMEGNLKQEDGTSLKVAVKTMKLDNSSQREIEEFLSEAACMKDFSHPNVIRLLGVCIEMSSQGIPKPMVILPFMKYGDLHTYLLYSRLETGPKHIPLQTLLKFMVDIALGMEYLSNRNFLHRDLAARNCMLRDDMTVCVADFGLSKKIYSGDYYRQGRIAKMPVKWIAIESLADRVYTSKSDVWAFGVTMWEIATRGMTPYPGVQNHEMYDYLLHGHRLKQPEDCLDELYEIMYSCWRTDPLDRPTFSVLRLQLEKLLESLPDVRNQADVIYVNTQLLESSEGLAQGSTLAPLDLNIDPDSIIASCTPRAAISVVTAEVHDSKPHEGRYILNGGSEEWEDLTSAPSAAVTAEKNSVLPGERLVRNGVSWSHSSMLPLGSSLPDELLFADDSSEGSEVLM
Give only the figure.

SSWPDYVRPLP [HSPB1_Y54_G53D] :: 0.437
EWQQTYTYDSG [JUP_Y20] :: 0.817
TAALWYIYSHT [ENG_Y612] :: 0.878
DFRTTYVNANE [KCNH2_Y475_N470D] :: 0.415
FLAVGYHKPHI [IDS_Y225] :: 0.368
KRAIGHYSATS [FAM120A_Y327_Y327H] :: 0.355

Prompt line: Annotate the sequence YGMSSYITRED [FNDC3B_Y180_T179S] with its measured phosphorylation enrichment.
Response line: 0.544

Prompt line: Annotate the sequence MSLDQYSPSFP [FGFR1_Y776_P772S] with its measured phosphorylation enrichment.
Response line: 0.44

Prompt line: Annotate the sequence SHNKFYMLVAR [MFSD8_Y134_YF] with its measured phosphorylation enrichment.
Response line: 0.479

Prompt line: Annotate the sequence CEHRGHLFLAI [TEK_Y897_Y897H_YF] with its measured phosphorylation enrichment.
Response line: 0.482

Prompt line: Annotate the sequence GSTLSYGRDGR [MATR3_Y158_P154S] with its measured phosphorylation enrichment.
Response line: 0.374

Prompt line: Annotate the sequence YGAHKYHPLPV [OAT_Y55_N54K] with its measured phosphorylation enrichment.
Response line: 0.442

Prompt line: Annotate the sequence AFLEDYFTSTE [SRC_Y522] with its measured phosphorylation enrichment.
Response line: 0.578

Prompt line: Annotate the sequence CATIHYNYMCN [TP53_Y234_T230A] with its measured phosphorylation enrichment.
Response line: 0.435
